# test system: human 17β-HSD3 (Homo sapiens)
# Construct: expressed in transfected cells; host or cells: 293-EBNA cells (human), stably transfected
# Sequence (P37058 whole entry): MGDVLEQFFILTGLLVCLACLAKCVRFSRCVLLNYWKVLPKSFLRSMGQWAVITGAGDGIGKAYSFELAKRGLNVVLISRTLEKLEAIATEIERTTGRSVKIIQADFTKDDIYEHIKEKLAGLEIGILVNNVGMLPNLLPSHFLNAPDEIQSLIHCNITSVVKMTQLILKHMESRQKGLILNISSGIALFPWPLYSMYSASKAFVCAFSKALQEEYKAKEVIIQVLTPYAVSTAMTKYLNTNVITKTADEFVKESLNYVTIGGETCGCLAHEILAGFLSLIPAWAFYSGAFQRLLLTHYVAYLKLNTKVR
# protocol details: 17β-Hydroxysteroid dehydrogenase Type 3 activity in stably transfected 293-EBNA cells (3H-androstenedione to testosterone conversion)
# Assay type: cell-based
# condition description: 10 μM test compound; 293-EBNA cells stably transfected with 17β-HSD Type 3; 2-3 nM 3H-androstenedione; 2 hours
measured metric: inhibition at 10 µM

compound | measured metric | data value
O=C(c1ccco1)N1CCC(Nc2ccccc2Oc2ccc(Cl)cc2Cl)CC1 | inhibition at 10 µM | 20 to 60%
CC(=O)N1CCCC(Nc2ccccc2Oc2ccc(Cl)cc2)c2ccccc21 (stereo not drawn) | inhibition at 10 µM | > 60%
O=C(c1ccccc1)N1CCC(Nc2ccccc2Oc2ccc(Cl)cc2Cl)CC1 | inhibition at 10 µM | > 60%
CC(=O)N1CCC(Nc2ccccc2Oc2ccc(Cl)cc2)CC1 | inhibition at 10 µM | > 60%
CC(=O)N1CCC(Nc2ccccc2Oc2ccc(Cl)cc2)CC1c1ccccc1 (stereo not drawn) | inhibition at 10 µM | 20 to 60%
O=C(c1ccccc1)N1CCC(Nc2ccccc2Oc2ccc(Cl)cc2)CC1 | inhibition at 10 µM | > 60%
O=C(Nc1ccccc1Oc1ccc(C(F)(F)F)cc1)C1CCN(C(=O)c2ccccc2)CC1 | inhibition at 10 µM | 20 to 60%
CC(=O)N1CCC(C(=O)Nc2ccccc2Oc2ccc(OC(F)(F)F)cc2)CC1 | inhibition at 10 µM | 20 to 60%
CC(=O)N1CCC(C(=O)Nc2ccccc2Oc2ccc(C(F)(F)F)cc2)CC1 | inhibition at 10 µM | 20 to 60%
CC(=O)N1CCCC(Nc2ccccc2Oc2ccc(Cl)cc2)CC1 (stereo not drawn) | inhibition at 10 µM | > 60%
O=C(Nc1ccccc1Oc1ccc(OC(F)(F)F)cc1)C1CCN(C(=O)c2ccccc2)CC1 | inhibition at 10 µM | 20 to 60%
O=C(Nc1ccccc1Oc1cc(Cl)cc(Cl)c1)C1CCN(C(=O)c2ccccc2)CC1 | inhibition at 10 µM | 20 to 60%

----------
Recorded measurements of melting point, one per entry
measured metric: melting point

given smiles | data value
CC(=O)N1CCC(C(=O)Nc2ccccc2Oc2ccc(Cl)cc2)CC1 | 195 to 196 °C
O=C(NC1CCN(C(=O)c2ccccc2)CC1)c1ccccc1Oc1ccc(Cl)cc1Cl | 63 to 66 °C
CC(=O)N1CCC(C(=O)Nc2ccccc2Oc2ccc(Cl)cc2Cl)CC1 | 194 to 196 °C
CC(C)C(=O)N1CCC(NC(=O)c2ccccc2Oc2ccc(Cl)cc2Cl)CC1 | 51 to 54 °C
O=C(Nc1ccccc1Oc1ccc(Cl)cc1Cl)C1CCN(S(=O)(=O)c2cc(Cl)ccc2Cl)CC1 | 194 to 196 °C
